molecular target: NTT1 (plastid / chloroplast ATP/ADP transporter 1) (Arabidopsis thaliana, UniProt Q39002, K528R); construct: gene AATP1; mature form lacking first 79 residues (transit peptide), N-terminal His-tag, C-terminal StreptagII; E. coli; purified in LAPAO; monomers and dimers; test: tryptophan fluorescence variation; type: binding; details: read-out: Affinity for ATP
Sequence (Q39002 80-624 K528R): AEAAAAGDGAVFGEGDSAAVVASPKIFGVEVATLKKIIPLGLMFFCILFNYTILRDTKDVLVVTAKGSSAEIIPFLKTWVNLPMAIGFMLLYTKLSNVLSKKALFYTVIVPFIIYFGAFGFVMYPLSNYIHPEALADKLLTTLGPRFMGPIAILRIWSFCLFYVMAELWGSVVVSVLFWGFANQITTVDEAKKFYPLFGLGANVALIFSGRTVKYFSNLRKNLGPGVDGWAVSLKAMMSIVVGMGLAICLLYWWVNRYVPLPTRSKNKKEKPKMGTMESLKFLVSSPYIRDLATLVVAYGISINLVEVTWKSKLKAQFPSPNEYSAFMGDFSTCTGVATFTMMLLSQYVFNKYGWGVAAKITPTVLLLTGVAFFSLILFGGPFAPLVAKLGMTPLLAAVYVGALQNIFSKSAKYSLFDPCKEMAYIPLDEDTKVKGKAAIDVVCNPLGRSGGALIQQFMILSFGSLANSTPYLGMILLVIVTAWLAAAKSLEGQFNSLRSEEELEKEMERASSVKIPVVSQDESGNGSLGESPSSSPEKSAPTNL
METRIC: Kd

[Q] Which Kd is reported for this compound? "Nc1ncnc2c1ncn2[C@@H]1O[C@H](COP(=O)(O)OP(=O)(O)OP(=O)(O)O)[C@@H](O)[C@H]1O"
[A] > 1000 µM

---

target: NTT1 (plastid / chloroplast ATP/ADP transporter 1) (Arabidopsis thaliana); construct: mature form lacking first 79 residues (transit peptide), N-terminal His-tag, C-terminal StreptagII; E. coli; purified in LAPAO; monomers and dimers; assay: tryptophan fluorescence quenching; conditions: 20 mM Tris pH 8, 10 mM NaCl, 0.1% LAPAO, 25°C; no Mg2+, no Pi; one-site fit; read-out: Affinity
METRIC: pKd
Please keep in mind that pKd is minus log10 of the molar concentration; only the number is needed.

| COMPOUND | METRIC | ASSAY RESULT |
| --- | --- | --- |
| Nc1ncnc2c1ncn2[C@@H]1O[C@H](COP(=O)(O)OP(=O)(O)O)[C@@H](O)[C@H]1O [ADP] | pKd | 5.07 |

[Q] What pKd value was documented for this compound, Nc1ncnc2c1ncn2[C@@H]1O[C@H](COP(=O)(O)OP(=O)(O)OP(=O)(O)O)[C@@H](O)[C@H]1O [ATP] ?
[A] 5.38
